- experimental-system: α2A-adrenoceptors (Homo sapiens)
- Construct: Human cerebral cortex obtained at post-mortem; from tissue; host or cells: human post-mortem cerebral cortex membranes
- Sequence (P08913 1-465): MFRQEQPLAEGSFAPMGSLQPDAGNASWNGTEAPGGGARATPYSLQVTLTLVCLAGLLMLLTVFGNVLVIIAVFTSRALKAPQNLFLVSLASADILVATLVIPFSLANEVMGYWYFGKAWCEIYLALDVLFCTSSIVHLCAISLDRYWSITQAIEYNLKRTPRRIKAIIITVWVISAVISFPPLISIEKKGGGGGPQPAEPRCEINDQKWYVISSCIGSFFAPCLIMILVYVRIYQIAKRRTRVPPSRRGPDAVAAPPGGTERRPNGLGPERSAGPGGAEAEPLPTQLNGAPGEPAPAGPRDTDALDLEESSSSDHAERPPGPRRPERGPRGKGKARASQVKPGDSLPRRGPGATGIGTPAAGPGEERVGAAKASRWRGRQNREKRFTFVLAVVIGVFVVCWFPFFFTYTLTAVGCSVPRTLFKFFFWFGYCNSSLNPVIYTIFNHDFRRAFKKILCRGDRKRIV
- measurement-protocol: inhibition of tritiated RX 821002 binding to α2A-adrenoceptors in human cerebral cortex
- protocol-conditions: at 10^-6 M, tritiated RX 821002, read-out: % displacement of radio ligand, α2A
Hi there, I'd appreciate the recorded inhibition at 1 µM for every entry that follows.
One number for each entry, in %.

These recorded examples may help you get a feel for the data.
O=C(NCC1CCN(CC2COc3ccccc3O2)CC1)c1cccc2cccnc12 (stereo not drawn) [Example 8] :: 99
Nc1ncccc1C(=O)NCC1CCN(CC2COc3ccc(F)cc3O2)CC1 (stereo not drawn) [Example 10] :: 100
Cc1ccc2c(c1)O[C@@H](CN1CCC(CNC(=O)c3cccnc3N)CC1)CO2 [Example 5] :: 98

Provide inhibition at 1 µM for all items below, preserving their order.
1. O=C(NCC1CCN(C[C@H]2COc3ccc(Cl)cc3O2)CC1)c1cccnc1 [Example 22]
2. Nc1ncccc1C(=O)NCC1CCN(C[C@H]2COc3cccc(C(F)(F)F)c3O2)CC1 [Example 20]
3. O=C(NCC1CCN(C[C@H]2COc3ccc(Cl)cc3O2)CC1)c1cccc2cccnc12 [Example 23]
4. O=C(NCC1CCN(C[C@H]2COc3ccc(Cl)cc3O2)CC1)c1ccccn1 [Example 12]
5. Nc1ccsc1C(=O)NCC1CCN(CC2COc3ccccc3O2)CC1 (stereo not drawn) [Example 16]
6. Cc1cccc2c1O[C@@H](CN1CCC(CNC(=O)c3cccnc3N)CC1)CO2 [Example 13]

99
101
98
99
100
100

---

- experimental-system: 5-HT1A receptors (Rattus norvegicus)
- Sequence (P19327 1-422): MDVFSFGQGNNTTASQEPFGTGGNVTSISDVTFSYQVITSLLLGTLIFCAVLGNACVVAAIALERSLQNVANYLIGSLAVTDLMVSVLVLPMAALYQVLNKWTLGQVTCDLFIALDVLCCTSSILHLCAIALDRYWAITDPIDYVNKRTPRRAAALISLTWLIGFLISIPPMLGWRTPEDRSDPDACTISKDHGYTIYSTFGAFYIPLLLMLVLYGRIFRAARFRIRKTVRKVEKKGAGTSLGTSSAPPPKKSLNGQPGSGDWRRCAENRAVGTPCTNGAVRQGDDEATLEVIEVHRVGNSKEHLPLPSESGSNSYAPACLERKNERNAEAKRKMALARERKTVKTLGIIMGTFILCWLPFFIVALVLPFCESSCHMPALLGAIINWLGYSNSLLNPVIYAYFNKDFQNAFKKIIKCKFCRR
Output MET for records whose Ki is lower than 40 nM, NOT MET for records at or above 40 nM.

hey, is Ki for Cc1cccc2c1O[C@@H](CN1CCC(CNC(=O)c3cccnc3N)CC1)CO2 lower than 40 nM or not?
MET

---

- experimental-system: α2D-adrenoceptors (Rattus norvegicus)
- Construct: Frontal cortical tissue from the brains of male Charles River CD rats; from tissue; host or cells: rat frontal cortex membranes
- Sequence (P22909 whole entry): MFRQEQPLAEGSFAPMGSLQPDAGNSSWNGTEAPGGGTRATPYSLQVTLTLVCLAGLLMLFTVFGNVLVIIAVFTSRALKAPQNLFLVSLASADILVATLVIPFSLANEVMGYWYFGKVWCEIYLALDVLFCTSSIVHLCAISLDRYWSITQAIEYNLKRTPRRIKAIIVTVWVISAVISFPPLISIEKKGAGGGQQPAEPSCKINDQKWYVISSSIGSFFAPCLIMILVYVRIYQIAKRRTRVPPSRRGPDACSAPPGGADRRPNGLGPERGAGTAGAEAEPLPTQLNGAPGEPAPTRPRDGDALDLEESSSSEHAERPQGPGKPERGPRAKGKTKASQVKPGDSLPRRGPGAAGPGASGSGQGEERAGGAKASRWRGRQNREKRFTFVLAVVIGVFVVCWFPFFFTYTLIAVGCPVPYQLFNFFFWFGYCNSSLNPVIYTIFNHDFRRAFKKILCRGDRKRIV
- measurement-protocol: inhibition of tritiated idazoxan binding to α2D-adrenoceptors in rat frontal cortical tissue
- protocol-conditions: at 10^-6 M; rat frontal cortex, tritiated idazoxan; read-out: % displacement of radio ligand, α2D
test-readout: inhibition at 1 µM (%)
Give bare numbers, in %.

Provide inhibition at 1 µM for all items below, preserving their order.
1. O=C(NCC1CCN(C[C@H]2COc3ccc(Cl)cc3O2)CC1)c1cccnc1 [Example 22]
2. O=C(NCC1CCN(CC2COc3ccccc3O2)CC1)c1cccc2cccnc12 (centres unmarked) [Example 8]
3. Nc1ncccc1C(=O)NCC1CCN(C[C@H]2COc3ccccc3O2)CC1 [Example 15]
4. O=C(NCC1CCN(C[C@H]2COc3ccc(Cl)cc3O2)CC1)c1cccc2cccnc12 [Example 23]

[99, 100, 99, 95]

Provide inhibition at 1 µM for all items below, preserving their order.
1. Cc1ccc2c(c1)O[C@@H](CN1CCC(CNC(=O)c3cccnc3N)CC1)CO2 [Example 5]
2. Nc1ncccc1C(=O)NCC1CCN(C[C@H]2COc3cccc(Cl)c3O2)CC1 [Example 2]
3. COc1cccc2c1OC(CN1CCC(CNC(=O)c3cccnc3N)CC1)CO2 (centres unmarked) [Example 11]
4. Cc1ncccc1C(=O)NCC1CCN(C[C@H]2COc3cccc(Cl)c3O2)CC1 [Example 9]
5. Nc1ncccc1C(=O)NCC1CCN(C[C@H]2COc3cccc(C(F)(F)F)c3O2)CC1 [Example 20]
6. Cc1cccc2c1O[C@@H](CN1CCC(CNC(=O)c3cccnc3N)CC1)CO2 [Example 13]

1: 96; 2: 98; 3: 98; 4: 97; 5: 98; 6: 99

Provide inhibition at 1 µM for all items below, preserving their order.
1. Nc1ncccc1C(=O)NCC1CCN(C[C@H]2COc3ccc(Cl)cc3O2)CC1 [Example 1]
2. O=C(NCC1CCN(C[C@H]2COc3ccc(Cl)cc3O2)CC1)c1ccccn1 [Example 12]
3. Nc1ncccc1C(=O)NCC1CCN(CC2COc3ccccc3O2)CC1 (centres unmarked) [Example 4]
4. Nc1ncccc1C(=O)NCC1CCN(C[C@H]2COc3cccc(F)c3O2)CC1 [Example 3]
5. Cc1ncccc1C(=O)NCC1CCN(C[C@H]2COc3ccc(Cl)cc3O2)CC1 [Example 18]
6. Cc1ccc(C(=O)NCC2CCN(C[C@H]3COc4ccc(Cl)cc4O3)CC2)c(N)n1 [Example 14]
7. Nc1ccsc1C(=O)NCC1CCN(CC2COc3ccccc3O2)CC1 (centres unmarked) [Example 16]

97
95
98
99
89
97
99

---

Hi there, I'd appreciate the recorded inhibition at 1 µM for every entry that follows.
- experimental-system: D2 dopamine receptors (Rattus norvegicus)
- Construct: Striatal tissue from the brains of male Charles River CD rats; from tissue; host or cells: rat striatum membranes
- Sequence (P61169 whole entry): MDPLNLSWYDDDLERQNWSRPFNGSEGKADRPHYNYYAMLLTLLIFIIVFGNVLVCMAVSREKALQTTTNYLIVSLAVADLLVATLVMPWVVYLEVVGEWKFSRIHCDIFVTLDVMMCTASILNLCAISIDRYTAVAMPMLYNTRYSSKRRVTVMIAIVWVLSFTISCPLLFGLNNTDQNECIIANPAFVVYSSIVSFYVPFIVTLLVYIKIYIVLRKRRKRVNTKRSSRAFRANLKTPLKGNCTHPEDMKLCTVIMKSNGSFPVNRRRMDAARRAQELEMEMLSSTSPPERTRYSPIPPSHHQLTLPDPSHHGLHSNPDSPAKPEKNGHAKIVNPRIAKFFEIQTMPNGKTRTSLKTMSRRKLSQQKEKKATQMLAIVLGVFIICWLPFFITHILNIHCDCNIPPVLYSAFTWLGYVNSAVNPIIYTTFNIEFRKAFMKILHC
- measurement-protocol: inhibition of tritiated (S)-sulpiride binding to D2 dopamine receptors in rat striatal tissue
- protocol-conditions: at 10^-6 M; rat striatum, tritiated (S)-sulpiride; read-out: % displacement of radio ligand, D2
- Method: Striatal tissue from the brains of male Charles River CD rats weighing between 140-250 g were homogenised in ice-cold 50 mM Tris-HCl buffer (pH 7.7 when measured at 25° C.) and centrifuged at 40,000 g for 10 minutes. The pellet was resuspended in Tris salts buffer (50 mM Tris-HCl buffer containing 120 mM NaCl, 5 mM KCl, 2 mM CaCl2 and 1 mM MgCl2 with the addition of 6 mM ascorbic acid; pH 7.7 when measured at 25° C.), and again centrifuged at 40,000 g for 10 minutes. […]
One number for each entry, in %.

Provide inhibition at 1 µM for all items below, preserving their order.
1. O=C(NCC1CCN(C[C@H]2COc3cccc(C(F)(F)F)c3O2)CC1)c1cncc(Br)c1
2. O=C(NCC1CCN(C[C@H]2COc3ccc(Br)cc3O2)CC1)c1ccc(-n2cccc2)nc1

99
97

Provide inhibition at 1 µM for all items below, preserving their order.
1. CSc1ncccc1C(=O)NCC1CCN(C[C@H]2COc3ccc(Br)cc3O2)CC1
2. O=C(NCC1CCN(C[C@H]2COc3ccc(Cl)cc3O2)CC1)c1cncc(Br)c1
3. Cc1ccc2c(c1)O[C@@H](CN1CCC(CNC(=O)c3cccnc3C)CC1)CO2

1: 99; 2: 91; 3: 68

Provide inhibition at 1 µM for all items below, preserving their order.
1. CSc1ncccc1C(=O)NCC1CCN(C[C@H]2COc3cccc(C(F)(F)F)c3O2)CC1
2. CSc1ncccc1C(=O)NCC1CCN(C[C@H]2COc3ccc(C)cc3O2)CC1
3. O=C(NCC1CCN(C[C@H]2COc3ccc(Br)cc3O2)CC1)c1cncc(Br)c1

1. 101
2. 81
3. 87

Provide inhibition at 1 µM for all items below, preserving their order.
1. O=C(NCC1CCN(C[C@H]2COc3ccc(Br)cc3O2)CC1)c1cccnc1
2. Nc1ncccc1C(=O)NCC1CCN(C[C@H]2COc3ccc(F)c(F)c3O2)CC1
3. Cc1ccc2c(c1)O[C@@H](CN1CCC(CNC(=O)c3cncc(Br)c3)CC1)CO2
4. Cc1ncccc1C(=O)NCC1CCN(C[C@H]2COc3ccc(Br)cc3O2)CC1

[101, 99.9, 86, 98]

Provide inhibition at 1 µM for all items below, preserving their order.
1. Nc1ncccc1C(=O)NCC1CCN(C[C@H]2COc3cccc(Cl)c3O2)CC1
2. Cc1ncccc1C(=O)NCC1CCN(C[C@H]2COc3cccc(C(F)(F)F)c3O2)CC1
3. O=C(NCC1CCN(C[C@H]2COc3cccc(C(F)(F)F)c3O2)CC1)c1cccnc1
4. CSc1ncccc1C(=O)NCC1CCN(C[C@H]2COc3ccc(F)cc3O2)CC1
5. O=C(NCC1CCN(C[C@H]2COc3cccc(Cl)c3O2)CC1)c1ccc(-n2cccc2)nc1

[104, 104, 97, 57, 101]
